Molecular target: T1, 4H3631-bH
T1 chain: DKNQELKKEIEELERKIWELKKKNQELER
Experiment: two-hybrid library CCNG1;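 note: natural log of median RNA to DNA barcode read ratio; higher means stronger binding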
measurement_kind: interaction score

# example entries with known answers
Output interaction score of DKNQELKKEIEELERKIWELKKKNQELER [4H3631-bH]
1.13

Provide one value: measured interaction score of DKNQELEKEIEELKRKIWELEKENQELKR [4H3172-bH]
0.994

Look up and report measured interaction score for this entry: DKNQELEKEIEELERKNWELKKEIQELER [4H3129-bH]
-0.645

(1) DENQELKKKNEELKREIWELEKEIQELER [4H1985-bH]
(2) DENQELKKKIEELEREIWELKKENQELKR [4H1804-bH]
Problem: Given the entries 1 and 2 , determine which has the lower reported interaction score. Pick one; state its label.
2
